- System: MS2 coat protein
- Assay Notes: apparent KD of MS2 coat protein; higher = weaker reporter binding
- Applied Conditions: Eterna round: R107; input ligand: tryptophan 2.4 mM
Measurement Label: apparent KD of MS2 coat protein (µM)
API: value field is a number in µM; no unit string.

Please review the following examples before continuing.
| Sequence Code | Assay Target | apparent KD of MS2 coat protein (µM) |
| --- | --- | --- |
| AUACAUGAGGAUCACCCAUGUAUAGAUGAAGGAGCGACCAGAGGGUCAGGUAGGUCGCAUCACAUGAGGAUCACCCAUGUAUUUU [DOUBLE!!! :-D #10] | MS2 coat protein | 0.0437 |
| UUGGGUUUGUGAAGGAGCGGGAAAGUUUUAUAGUGGAUCCUAACAUGAGGAUCACCCAUGUCCCAGGUAGGUCGCGCGGGUUUGG [12.R] | MS2 coat protein | 0.107 |

Here's the next entry for you.
IN: What value of apparent KD of MS2 coat protein has been recorded for this entry: UGUAUGGACUGAAGGAGCGGUAGAUAACUUGAGGAUCACCCAGGUAAUAAGGCGAAAGCCUACCAGGUAGGUCGCAGUCCAUACU
OUT: 0.138

* * *

- Tested on: MS2 coat protein
- Assay Notes: apparent KD of MS2 coat protein; designed switch direction (-1 OFF switch, 1 ON switch): -1; higher = weaker reporter binding
- Applied Conditions: input ligand: FMN 200 uM
Assign Satisfied whenever apparent KD of MS2 coat protein does not fall below 300 nM; assign Not satisfied whenever it does.

| Sequence Code | Assay Target | Qualitative Label |
| --- | --- | --- |
| CCUAAGAAAGGAUAUACACCGGUGGGCCGCUGAAUUCAGCAACAUGAGGAUCACCCAUGUAGAAGGUUUAUGGG [Veteso] (Eterna round: R96, puzzle: Exclusion 2) | MS2 coat protein | Satisfied |
| CAUAGCCGUGUAAGGAUAUCCGAUCCACGGGACAAGGAGAAGGUACAUGAGGAUCACCCAUGUAAGGGUUCCUA [Vecequve] (Eterna round: R97, puzzle: Brourd's mod of Exclusion 4) | MS2 coat protein | Not satisfied |
| CUUUUGUGAGGAUAUGGUAACGAUGACAUGAGGAUCACCCAUGUAACAUGGGACUUGAGACUAGAAGGCACUAACG [JR_Ex5_Sub025] (Eterna round: R97, puzzle: Exclusion 5) | MS2 coat protein | Not satisfied |
| GUACUGACAGGAUAUACAUGAGGAUCACCCAUGUCCUUAGGCUGACAAAAGUCAGCAAGUAGAAGGGUCUGUAC [Omei Ex3 Model Bachelor's Dilema v3] (Eterna round: R97, puzzle: Exclusion 3) | MS2 coat protein | Satisfied |

Below: the item to evaluate.
IN: # check: apparent KD of MS2 coat protein of UACAGUCAUCCUUAUUGUUACAUGAGGAUCACCCAUGUUAGUAUAAUUAAGUUAUGUAAGUUUGUUGUUCGUUUUAU [JR_STOV1_v2_Sub075] (Eterna round: R97, puzzle: Sensor, turn-off variant 1) is greater than or equal to 300 nM
OUT: Not satisfied

* * *

- System: MS2 coat protein
- Assay Notes: apparent KD of MS2 coat protein; designed switch direction (-1 OFF switch, 1 ON switch): -1; higher = weaker reporter binding
- Applied Conditions: Eterna round: R95; input ligand: FMN 200 uM
Measurement Label: apparent KD of MS2 coat protein (nM)
API: value field is a number in nM; no unit string.

Please review the following examples before continuing.
| Sequence Code | Value Units | Numeric Readout |
| --- | --- | --- |
| UAAAGGCUAGGAUAUCGCACCUUCGACAUGAGGAUCACCCAUGUAUGUCGAUGGUAAAAUCGAGAAGGAGCGAGAA [Artiedqu] (puzzle: Exclusion 5) | nM | 31.7 |
| GAAGAAGAGAGAAAAGAAAACAUGAGGAUCACCCAUGUGAGAAGAUGAGGGUGUAACAGGCUUUAUGCUCGUCUUAU (puzzle: Sensor v3, turn-off variant 1) | nM | 33.6 |
| GAAAAGUGAGGAUAUGGUAAAAGAAAAAGAAAAAGAAAACUCCAGAAGGCACAUGAGGAUCACCCAUGUGAAAG [salish99_ex4_r3_006] (puzzle: Exclusion 4) | nM | 15.7 |
| CAUACUCAAGUGAGGAUAUAGUCUCGGAUACGAAACUAGAAGGCACAUGAGGAUCACCCAUGUAGAGAGUAAAG [EX-4 Malc #29] (puzzle: Brourd's mod of Exclusion 4) | nM | 62.7 |
| AUGAGCAGACGGAGAUCCAACAUGAGGAUCACCCAUGUCUCAUAAGCUUUUUGCUCAUCUUAUUGUACCUUGGUGCU [Mat - Sensor v3 - turn-off var 1 - JL Mod - D19] (puzzle: Sensor v3, turn-off variant 1) | nM | 191 |
| AGUAGUAGUAUCCGAUCCGACAUGAGGAUCACCCAUGUAGCUAGACGUGCACGCGAUGCUCGUCAGACUACCAGAUG [salish99_TOv1_r3_037] (puzzle: Sensor v3, turn-off variant 1) | nM | 102 |
| CUCUUGUCAGGAUAUCUAAGCUGCCUCCCGGUAGCCGAAUUAGAGAAGGGACAUGAGGAUCACCCAUGUAAAAG [Qubile] (puzzle: Exclusion 4) | nM | 58.3 |
| GAGAAGUGAGGAUAUGCGGUAAGGAUGAAAGGAAGGAAUGAGUAGAAGGCACAUGAGGAUCACCCAUGUAGAGU [JR_Exclu4_Sub081] (puzzle: Exclusion 4) | nM | 19.5 |
| AAAAAACAAGGAUAUACGAAGGAGGGUUGUCUUAAUUUUUGACAUGAGGAUCACCCAUGUAGAAGGUGUUAAAA [JR_Exclusion2_Sub012] (puzzle: Exclusion 2) | nM | 146 |
| GGAGAACAUGAGGAUCACCCAUGUAAGGAUAUGCAAAAGGAUAUAGAAGGAAAAAAAAGCAGAAGGUACAAAGG [salish99-ex1_r3_101] (puzzle: Exclusion 1) | nM | 79.5 |

IN: What value of apparent KD of MS2 coat protein has been recorded for this entry: GGUGCUGGCGCGUCGGUGUUGGUGCAAUAAGCUUGUGAAACAUGAGGAUCACCCAUGUCCUCAUGGGCUCGUCUUGU [salish99_TOv2_r2_089] (puzzle: Sensor v3, turn-off variant 2)
OUT: 123

IN: What value of apparent KD of MS2 coat protein has been recorded for this entry: UAUUACUCAGGAUAUAUGAUGUGAAACAUGAGGAUCACCCAUGUAAUAUUAUGGAUGUAAAUAGAAGGGAGAUAAU [Mat - Exclusion 5 - JL mod - D21] (puzzle: Exclusion 5)
OUT: 37.1

* * *

- Tested on: MS2 coat protein
- Assay Notes: apparent KD of MS2 coat protein; designed switch direction (-1 OFF switch, 1 ON switch): -1; higher = weaker reporter binding
- Applied Conditions: input ligand: FMN 200 uM
Examples of sequences with documented apparent KD of MS2 coat protein follow.
API: value field is a number in nM; no unit string.

Please review the following examples before continuing.
| Sequence Code | Value Units | apparent KD of MS2 coat protein |
| --- | --- | --- |
| UCUGGAGCAGGAUAUAUAUGACGUGCUUCGGCACGGUGAGUACAUGAGGAUCACCCAUGUAGAAGGGCUCCAGA [Exclusion 2 (Mod of Brourd's E2/9-D2)] (Eterna round: R97, puzzle: Exclusion 2) | nM | 81.8 |
| AUAUAGUCAGGAUAUCGAAGUGUGUGUUGGUUUGUAAUUUACGAGAAGGGACAUGAGGAUCACCCAUGUAGGAA [JR_Exclusion4)Sub002] (Eterna round: R96, puzzle: Exclusion 4) | nM | 49.3 |
| GAUUAACAUGAGGAUCACCCAUGUGAGGAUAUGGACUUGCCCACUUACCCAUUAGAGUCUAGAAGGCGCAUCUG [1986#23] (Eterna round: R97, puzzle: Exclusion 1) | nM | 48.4 |
| AACUUCUGAGGAUAUACAUAGAUUUACAUGAGGAUCACCCAUGUUCCUCUAUGUAUAAAUGUAGAAGGCAGAAGAA [JL-ex5-4.37 Malcolm mod] (Eterna round: R97, puzzle: Exclusion 5) | nM | 88.6 |

Here's the next entry for you.
IN: What value of apparent KD of MS2 coat protein has been recorded for this entry: AUAAUGUCAGGAUAUACUAAUGAUGAAUGAUUAGACAUUAUGUAGAAGGGACAUGAGGAUCACCCAUGUAAUAU [EX4 #2] (Eterna round: R97, puzzle: Exclusion 4)
OUT: 39.9

* * *

- Tested on: K4 kissing-loop RNA reporter;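 further: bound reporter read as fluorescence of individual clusters on recovered sequencing chips by microscopy, with normalized cluster intensities fitted with a binding model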
- Assay Notes: apparent KD of K4 kissing-loop reporter; higher = weaker reporter binding
- Applied Conditions: Eterna round: R107; input ligand: theophylline 20 uM
Measurement Label: apparent KD of K4 kissing-loop reporter
Report field: quantity (unit follows the number).

| Sequence Code | Result |
| --- | --- |
| CGCAGUGAUGUUGCUAUUAUUCUUGAUUAACGAGGACCGGUACGGCCGCCACUCGAUUUCUAUCUGAUCCAGUGUUUUGUUGAGU [#22 K4 Tryptophan A Exclusion] | 360 nM |

IN: What value of apparent KD of K4 kissing-loop reporter has been recorded for this entry: GUGCAGUGAUGUUGCACGAGGAAAGACGAUACCAGCCGUAAAUAAGGCCCUUGGCAGCGUAGGCUAGCAUAAAGUACGCUAGUCC [Enarines]
OUT: 101 nM

IN: What value of apparent KD of K4 kissing-loop reporter has been recorded for this entry: GGUGUUGUUUGUGCCGCCUUCCUCGUUCCUCGAGGACCGGUACGGCCGCCACUCGAGUGAUGUUUGGGUAGCGAUCCCUGUUAGU [Bdazzled - #11 Exc. Tryptophan A]
OUT: 638 nM

IN: What value of apparent KD of K4 kissing-loop reporter has been recorded for this entry: UGUCAUUGGUCGGCCGCCACUUCGGUCAAAGACCAUAAAGAGUGAUGUUCUUAAGACGAAAGUCGAAGGACCGGGACCGAUGACU [TrypBS 11 #SwitchBubble #K4Middle]
OUT: 782 nM

IN: What value of apparent KD of K4 kissing-loop reporter has been recorded for this entry: AUUCAGAUCUGAAGGAGCGCGUUGACAUAUUGCUUCAUUGAGCAGUGAUGUUGCUCAGUAACGCAGGUAGGUCGCAGAUCUGGCC [Arg B Ex t7a]
OUT: 92.3 nM

IN: What value of apparent KD of K4 kissing-loop reporter has been recorded for this entry: GUAGGAUGAGGAGGAGGAAGAAAUACUGAAGGAGCGCAAAGAAAUGCAGGUAGGUCGCGGUAAAGAAGUAUAGUGAUGUUAUAUA [SSArgA.C]
OUT: 411 nM
